- TESTED ON: Rab7
- ASSAY SUMMARY: inhibitors of GTP binding, eight-GTPase multiplex, SAR follow-up, biochemical, bead flow cytometry, Mg non-chelator buffer, round 2 (AID 588622)
- CONDITION INFO: bead-based flow cytometry multiplex GTP binding
Below, each entry is listed alongside its reported EC50.

* CC1(C)Cc2c(sc(NC(=S)NC(=O)c3ccccc3F)c2C(=O)O)CO1 | 316 nM

Ask: Specify EC50 for `COc1cccc(C(=O)NC(=S)Nc2sc3c(c2C(=O)O)CC(C)(C)OC3)c1` , system Rab7.
Result: 323 nM

Ask: Please indicate recorded EC50 of `CC1(C)CCc2sc(NC(=S)NC(=O)c3ccccc3)c(C(=O)O)c2C1` measured with Rab7.
Result: 69 nM

Ask: // fetch EC50; item: `O=C(NC(=S)Nc1sc2c(c1C(=O)O)CC1(CCCC1)OC2)c1ccccc1` ; system: Rab7
Result: 33 nM

Ask: Tell me EC50 of `CC1(C)Cc2c(sc(NC(=S)NC(=O)c3cccc(F)c3)c2C(=O)O)CO1` when tested on Rab7.
Result: 423 nM

Ask: Give Rab7 EC50 for the following compound: `CC1(C)Cc2c(sc(NC(=S)NC(=O)c3ccccc3Br)c2C(=O)O)CO1`
Result: 1250 nM

Ask: Please indicate recorded EC50 of `COc1ccc(C(=O)NC(=S)Nc2sc3c(c2C(=O)O)CC(C)(C)OC3)cc1` measured with Rab7.
Result: 214 nM

Ask: Output reported EC50 of the compound CCC1(C)Cc2c(sc(NC(=S)NC(=O)c3ccccc3)c2C(=O)O)CO1 (stereo not drawn) on Rab7.
Result: 35 nM

Ask: // fetch EC50; item: `CC1(C)Cc2c(sc(NC(=S)NC(=O)c3ccco3)c2C(=O)O)CO1` ; system: Rab7
Result: 82 nM

Ask: Please look at `Cc1cccc(C(=O)NC(=S)Nc2sc3c(c2C(=O)O)CC(C)(C)OC3)c1` and tell me its recorded EC50 on Rab7.
Result: 325 nM

Ask: Provide EC50, tested on Rab7, for `CC1(C)Cc2c(sc(NC(=S)NC(=O)C3CCCCC3)c2C(=O)O)CO1` .
Result: 461 nM

Ask: Given `Cc1ccc(C(=O)NC(=S)Nc2sc3c(c2C(=O)O)CC(C)(C)OC3)cc1` , report its EC50 on Rab7.
Result: 97 nM

Ask: Provide EC50, tested on Rab7, for CC(C)(C)C1Cc2c(sc(NC(=S)NC(=O)c3ccccc3)c2C(=O)O)CO1 (stereo not drawn) .
Result: 218 nM

Ask: # lookup: Rab7 EC50, key = `Cc1ccccc1C(=O)NC(=S)Nc1sc2c(c1C(=O)O)CC(C)(C)OC2`
Result: 523 nM

Ask: Fetch value of EC50 on Rab7 for `CC1(C)Cc2c(sc(NC(=S)NC(=O)c3ccc(Br)cc3)c2C(=O)O)CO1` .
Result: 431 nM

Ask: State EC50 on Rab7. Entry: `CC1(C)Cc2c(sc(NC(=S)Nc3ccccc3)c2C(=O)O)CO1`
Result: 4990 nM

Ask: Answer with EC50 of `CC1(C)Cc2c(sc(NC(=S)NC(=O)c3cccs3)c2C(=O)O)CO1` measured for Rab7.
Result: 25 nM

Ask: Jot down EC50 (Rab7) of `CC1(C)Cc2c(sc(NC(=S)NC(=O)c3ccc(F)cc3)c2C(=O)O)CO1` .
Result: 77 nM
